TGI for assorted molecules
# System: RPMI-8226 leukemia
# PROCEDURE_SUMMARY: NCI tumour cell line growth inhibition, 48 h
Give your result in µM as a bare value.

INSERT INTO measurements (molecule, reported) VALUES
  ('N#Cc1ccc(NC(=O)Nc2nc3ccc(OC(F)(F)F)cc3s2)cc1', 13.3);

Return TGI measured with RPMI-8226 leukemia given this molecule: Nc1nc(CC2(O)CCCCC2)cc(-c2ccccc2)n1 78.6

Could you share what TGI was measured for COc1cc2c(cc1OC)-c1ncc3cc(OC)c(OC)c(OC)c3c1C2 , tested on RPMI-8226 leukemia? 23.1

# returns recorded TGI (system: RPMI-8226 leukemia) for C=C(C1=CC(=O)C(C)(C)O1)[C@@H]1CC=C([C@@H]2CC[C@H]3[C@@]2(C)CC[C@H]2C(C)(C)C(=O)[C@H](OC(=O)CC(C)(O)CC(=O)O)C[C@]32C)[C@H](O)O1 (some centres not stated) 5.24

What TGI appears in the records for this molecule with RPMI-8226 leukemia? Cc1ccccc1C[P+](c1ccccc1)(c1ccccc1)c1ccccc1 5.4

GET /values?readout=TGI&system=RPMI-8226 leukemia&item= CCCCCCCCCC[N+](C)(C)C 2.9

###

# System: SN12C renal
# PROCEDURE_SUMMARY: NCI tumour cell line growth inhibition, 48 h
EXPERIMENTAL_ENDPOINT: GI50

Consider the reported GI50 for these compounds:
INSERT INTO measurements (compound, reported) VALUES
  ('C[C@@H]1OC(=O)NN=C1c1ccc(-c2ccc(F)cc2)c(C(F)(F)F)c1', '5.63 µM'),
  ('CCCC(=O)Nc1c(I)cc(I)c(CC(CC)C(=O)O)c1I (stereo not drawn)', '> 100 µM');

What GI50 appears in the records for this compound with SN12C renal? O=C1CCC(N2C(=O)c3cccc(NCCOCCOCCNC(=O)c4cc5c(o4)C(=O)c4ccccc4C5=O)c3C2=O)C(=O)N1 (stereo not drawn) 1.54 µM

###

# Tested on: SK-MEL-28 melanoma
# PROCEDURE_SUMMARY: NCI tumour cell line growth inhibition, 48 h
EXPERIMENTAL_ENDPOINT: TGI (µM)
Answer with a number only, understood to be in µM.

INSERT INTO results (molecule, tested_target, output_unit, reported) VALUES
  ('COc1ccc2c(c1)c(=O)c1c(NCCCN(C)C)ccc3ncn2c31', 'SK-MEL-28 melanoma', 'µM', 26.4),
  ('C=C(C)[C@@H]1CC[C@]2(CN)CC[C@]3(C)[C@H](CC[C@@H]4[C@@]5(C)CCC(N)[C@@](C)(CO)[C@@H]5CC[C@]43C)[C@@H]12 (stereo not given in full)', 'SK-MEL-28 melanoma', 'µM', 3.37),
  ('COc1ccc(C[C@H]2NC[C@H](O)[C@H]2OC(C)=O)cc1', 'SK-MEL-28 melanoma', 'µM', 0.351);

Switching to the query record.
Item CC(C)c1cc(C(=O)[O-])c(O)c(C(C)C)c1.CC(C)c1cc(C(=O)[O-])c(O)c(C(C)C)c1.CC(C)c1cc(C(=O)[O-])c(O)c(C(C)C)c1.CC(C)c1cc(C(=O)[O-])c(O)c(C(C)C)c1.CC(C)c1cc(C(=O)[O-])c(O)c(C(C)C)c1.CC(C)c1cc(C(=O)[O-])c(O)c(C(C)C)c1.[Cu+2].[Mn+2].[Mn+2] has what recorded TGI? 45.3

###

# Test system: HOP-92 NSCLC
# PROCEDURE_SUMMARY: NCI tumour cell line growth inhibition, 48 h; in the data active = GI50 below about 0.43 µM; inactive = the rest
I would appreciate it if you answered using one of these outcomes: active, inactive

# count of solved cases: 5
INSERT INTO results (molecule, label_class) VALUES
  ('CCCCCCC(O)C(O)CCC(O)C1CCC(CCCCC(O)CC2=CC(C)OC2=O)O1 (stereo not given)', 'inactive'),
  ('Cc1ccc2c(c1)-c1oc(=O)c(-c3cc4ccccc4oc3=O)cc1C(O)O2 (stereo not given)', 'inactive'),
  ('O=C(Nc1ccc(-n2ccc3c(NC(=O)c4ccccc4)nccc32)cc1)c1ccc(N2CCOCC2)c(C(F)(F)F)c1', 'inactive'),
  ('O=[N+]([O-])c1ccc(C2CC3(c4ccccc4)ON=C(c4ccccc4)N3c3ccccc3S2)cc1 (stereo not given)', 'inactive'),
  ('C[C@@]1(O)CCC[C@H]1n1c(=O)c(C(F)F)cc2cnc(NC3CCN(S(C)(=O)=O)CC3)nc21', 'inactive');

What was the test verdict on O=S(=O)(NCCNc1cc(-c2cn(-c3ccccc3)nc2-c2cccc(O)c2)ccn1)c1ccc(Br)cc1 ? inactive

I would be grateful if you could indicate the recorded call for COc1ccc2c(c1)c(-c1ccc(-c3cn(C)c4ccc(OC)cc34)o1)cn2C . inactive

Returns: the outcome recorded for N#Cc1ccc(NC(=O)Nc2nc3ccc(OC(F)(F)F)cc3s2)cc1 in this assay. active

Record lookup: outcome of this test for O=C1CCC(N2C(=O)c3cccc(NCCOCCOCCNC(=O)c4cc5c(o4)C(=O)c4ccccc4C5=O)c3C2=O)C(=O)N1 (stereo not given) ? inactive

Which outcome was entered for the molecule O=c1c(-c2nc3ccccc3[nH]2)cc2ccccc2n1Cc1cn(Cc2ccccc2Cl)nn1 in this test? inactive

###

Each item that follows carries a reported TGI.
# Test system: LXFL 529 NSCLC
# PROCEDURE_SUMMARY: NCI tumour cell line growth inhibition, 48 h

// known answers, use as guide
INSERT INTO measurements (compound, reported) VALUES
  ('COc1cc2ccc3c4cc(OC)c(OC(C)C)cc4c[n+](C)c3c2cc1OC', '> 100 µM'),
  ('Fc1ccc2c(c1)cc1ccc3cccc4ccc2c1c34', '> 100 µM'),
  ('COc1ccc2c(c1)c(=O)c1c(NCCCN(C)C)ccc3ncn2c31', '19.8 µM'),
  ('CC(C)=CCC/C(C)=C/CC/C(C)=C/C1CCC(=O)C1(C)C (centres undefined)', '31.1 µM'),
  ('CC(C)c1cc(C(=O)[O-])c(O)c(C(C)C)c1.CC(C)c1cc(C(=O)[O-])c(O)c(C(C)C)c1.CC(C)c1cc(C(=O)[O-])c(O)c(C(C)C)c1.CC(C)c1cc(C(=O)[O-])c(O)c(C(C)C)c1.CC(C)c1cc(C(=O)[O-])c(O)c(C(C)C)c1.CC(C)c1cc(C(=O)[O-])c(O)c(C(C)C)c1.[Cu+2].[Mn+2].[Mn+2]', '46.3 µM');

Fill in the blank: the reported TGI of Cn1cc2ccccc2c1-c1nc(F)nc(Nc2ccc(N)cc2)n1 is ____. 30.9 µM

Which value of TGI has been reported for CC(C)(C)C1CCC(=O)C(C(O)CC2CC(=O)N(c3ccccc3)C(=O)C2)C1 (centres undefined) in the records? > 100 µM

###

# System: A549 NSCLC
# PROCEDURE_SUMMARY: NCI tumour cell line growth inhibition, 48 h
TGI below 6 µM gives not satisfied; TGI at or above it gives satisfied.

Illustrative cases are given below, each with its answer.
INSERT INTO measurements (compound, label_class) VALUES
  ('COC1C(OC(C)=O)CC(=O)OC(C)C/C=C/C=C\C(O)C(C)CC(CC=O)C1OC1OC(C)C(OC2CC(C)(O)C(OC(=O)CC(C)C)C(C)O2)C(N(C)C)C1O (centres undefined)', 'satisfied'),
  ('COc1ccc2c(c1)C(=O)[C@@](Nc1ccc(C=O)cc1)(OC)[C@@](OC)(c1ccc([N+](=O)[O-])cc1)O2', 'satisfied'),
  ('C=C(C1=CC(=O)C(C)(C)O1)[C@@H]1CC=C([C@@H]2CC[C@H]3[C@@]2(C)CC[C@H]2C(C)(C)C(=O)[C@H](OC(=O)CC(C)(O)CC(=O)O)C[C@]32C)[C@H](O)O1 (some centres undefined)', 'satisfied'),
  ('COc1ccc(NC(=O)CC(=O)N2N=C(C)C(N=Nc3ccc(C(=O)O)cc3)C2=O)cc1 (centres undefined)', 'satisfied'),
  ('O=c1c(-c2nc3ccccc3[nH]2)cc2ccccc2n1Cc1cn(Cc2ccccc2Cl)nn1', 'not satisfied'),
  ('CN1CCN(Cc2ccc(NC(=O)c3cccc(C#Cc4c(N)ncc5ccc(F)cc45)c3)cc2C(F)(F)F)CC1', 'not satisfied'),
  ('C=C1C(=O)O[C@H]2[C@H]1CC/C(Cn1cc(-c3ccsc3)nn1)=C\CC[C@@]1(C)O[C@@H]21', 'satisfied'),
  ('NC(Cc1ccc(O)cn1)C(=O)O (centres undefined)', 'satisfied');

Is TGI for O=C(CC1SC(=Nc2ccccc2Cl)NC1=O)Nc1ccc(Cl)cc1 (centres undefined) at or above 6 µM? satisfied

hey, is TGI for this one >= 6 µM? CCCCC(N)CSSCC(N)CCCC (centres undefined) satisfied
